# target.entity: recombinant human GITR (Cat No. 13643-H08H, Lot No. LC12JA2509, Sino Biological) (human) (UniProt Q9Y5U5)
# assay.explanation: SPR Biacore 8K, single-cycle kinetics, IgG in supernatant captured on Protein A, GITR as analyte
Recorded measurements of Relative KD (fold vs VH0/VL0), one per entry
reported.metric: Relative KD (fold vs VH0/VL0)

# binder, reported.metric, meas.value
records = [
    ("anti-GITR 51B VH1/VL1 humanized antibody (human IgG1, kappa) (antibody, V domains shown) VH: QVQLVQSGAELKKPGASVKLSCKTTGYRFTGYWIEWVRQPPGKGLEWIGEILPGSGATYYSENFKGKATITADTSTNTAYMEVSSLRSGDSAIYYCARKGGYYAMDYWGQGTSVTVSS VL: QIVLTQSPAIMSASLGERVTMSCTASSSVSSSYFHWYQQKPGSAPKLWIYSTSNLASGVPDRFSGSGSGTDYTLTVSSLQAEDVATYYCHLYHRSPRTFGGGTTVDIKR", "Relative KD (fold vs VH0/VL0)", 2.3),
    ("anti-GITR 51B VH2/VL1 humanized antibody (human IgG1, kappa) (antibody, V domains shown) VH: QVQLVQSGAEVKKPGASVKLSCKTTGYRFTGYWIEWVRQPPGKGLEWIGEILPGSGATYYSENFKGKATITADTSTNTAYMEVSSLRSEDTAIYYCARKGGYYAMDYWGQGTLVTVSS VL: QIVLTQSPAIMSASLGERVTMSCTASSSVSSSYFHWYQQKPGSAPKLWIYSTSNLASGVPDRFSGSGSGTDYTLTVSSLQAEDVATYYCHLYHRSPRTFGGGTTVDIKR", "Relative KD (fold vs VH0/VL0)", 1.9),
    ("anti-GITR 51B VH5/VL5 humanized antibody (human IgG1, kappa) (antibody, V domains shown) VH: QVQLVQSGAEVKKPGASVKVSCKTTGYRFTGYWIDWVRQPPGKGLEWIGEILPGSGATYYSENFKGKVTITADTSTDTAYMELSSLRSEDTAIYYCARKGGYYAMDYWGQGTLVTVSS VL: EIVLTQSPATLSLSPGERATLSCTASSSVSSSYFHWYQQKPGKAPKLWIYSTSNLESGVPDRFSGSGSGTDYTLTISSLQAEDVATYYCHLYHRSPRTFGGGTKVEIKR", "Relative KD (fold vs VH0/VL0)", 5.9),
]

The reported numbers originate from patent EP4339209A1.
